Entries and their measured Weight of mice, Day 20 follow.
# recorded.conditions: Day 20; G3-G9 groups; single IP dose; Mean±SEM

# molecule, Weight of mice, Day 20, g
records = [
    ("CC(C)(C)OC(=O)Nc1ccn([C@@H]2O[C@H](CO)[C@@H](O)C2(F)F)c(=O)n1", 20.98),
    ("O=C(Nc1nc(=O)n([C@@H]2O[C@H](CO)[C@@H](O)C2(F)F)cc1Br)OCc1ccccc1", 22.80),
    ("O=C(Nc1ccn([C@@H]2O[C@H](CO)[C@@H](O)C2(F)F)c(=O)n1)OCc1ccccc1", 22.44),
    ("O=C(Nc1ccn([C@@H]2O[C@H](CO)[C@@H](O)C2(F)F)c(=O)n1)OCc1ccc([N+](=O)[O-])cc1", 22.95),
    ("CC(C)(C)OC(=O)Nc1ccn([C@@H]2O[C@H](COC(=O)Cn3cnc([N+](=O)[O-])c3)[C@@H](O)C2(F)F)c(=O)n1", 21.05),
    ("CCCCOC(=O)Nc1nc(=O)n([C@@H]2O[C@H](CO)[C@@H](O)C2(F)F)cc1Br", 20.20),
]

---

Entries and their measured Weight change rate, Day 4 follow.
# recorded.conditions: Day 4; G10-G16 groups; single IP 400 mg/kg; Mean±SEM

# compound, measure.unit, Weight change rate, Day 4
records = [
    ("CCCCOC(=O)Nc1nc(=O)n(C2OC(COC(=O)COc3nc(Cl)c(Cl)cc3Cl)C(O)C2(F)F)cc1I (stereo not drawn)", "%", "−2.00"),
    ("O=C(COc1nc(Cl)c(Cl)cc1Cl)OC[C@H]1O[C@@H](n2cc(Br)c(NC(=O)OCc3ccccc3)nc2=O)C(F)(F)C1O (stereo partly drawn)", "%", 1.94),
    ("CCCCOC(=O)Nc1nc(=O)n(C2OC(COC(=O)COc3nc(Cl)c(Cl)cc3Cl)C(O)C2(F)F)cc1-c1cn(Cc2ccccc2)nn1 (stereo not drawn)", "%", "−18.30"),
    ("O=C(COc1nc(Cl)c(Cl)cc1Cl)OCC1OC(n2cc(-c3cn(Cc4ccccc4)nn3)c(NC(=O)OCc3ccc([N+](=O)[O-])cc3)nc2=O)C(F)(F)C1O (stereo not drawn)", "%", "−3.29"),
    ("CCCCOC(=O)Nc1nc(=O)n(C2OC(COC(=O)COc3nc(Cl)c(Cl)cc3Cl)C(O)C2(F)F)cc1Br (stereo not drawn)", "%", "−0.38"),
    ("CCCCOC(=O)Nc1nc(=O)n([C@@H]2O[C@H](COC(=O)Cn3cnc([N+](=O)[O-])c3)C(O)C2(F)F)cc1I (stereo partly drawn)", "%", "−1.54"),
]

---

# Tested on: HCT-116 colon cancer xenografts
# assay.remarks: Tumor growth inhibition of HCT-116 colon cancer xenografts in tumor-bearing nude mice (tumor volume, TGI %, RTV, T/C %)
# Assay type: in vivo, Balb/c Nude mice
# recorded.conditions: Day 11; G10-G16 groups; single IP 400 mg/kg; Mean±SEM
Marks after values point to notes of the source that are not given here.
Entries and their measured Tumor volume, Day 11 follow.

# compound, Tumor volume, Day 11
rows = [
    ("CCCCOC(=O)Nc1nc(=O)n([C@@H]2O[C@H](COC(=O)Cn3cnc([N+](=O)[O-])c3)C(O)C2(F)F)cc1I (stereo partly drawn) [Compound G12]", "475.09 ± 105.26** mm^3"),
    ("O=C(COc1nc(Cl)c(Cl)cc1Cl)OC[C@H]1O[C@@H](n2cc(Br)c(NC(=O)OCc3ccccc3)nc2=O)C(F)(F)C1O (stereo partly drawn) [Compound G10]", "599.83 ± 84* mm^3"),
    ("CCCCOC(=O)Nc1nc(=O)n(C2OC(COC(=O)COc3nc(Cl)c(Cl)cc3Cl)C(O)C2(F)F)cc1-c1cn(Cc2ccccc2)nn1 (stereo not drawn) [Compound G15]", "76.28 ± 10.83** mm^3"),
    ("CCCCOC(=O)Nc1nc(=O)n(C2OC(COC(=O)COc3nc(Cl)c(Cl)cc3Cl)C(O)C2(F)F)cc1Br (stereo not drawn) [Compound G16]", "621.03 ± 173.32 mm^3"),
    ("CCCCOC(=O)Nc1nc(=O)n(C2OC(COC(=O)COc3nc(Cl)c(Cl)cc3Cl)C(O)C2(F)F)cc1I (stereo not drawn) [Compound G11]", "495.68 ± 140.53* mm^3"),
    ("O=C(COc1nc(Cl)c(Cl)cc1Cl)OCC1OC(n2cc(-c3cn(Cc4ccccc4)nn3)c(NC(=O)OCc3ccc([N+](=O)[O-])cc3)nc2=O)C(F)(F)C1O (stereo not drawn) [Compound G13]", "427.82 ± 136.59** mm^3"),
]

---

# System: HCT-116 colon cancer xenografts
# assay.remarks: Tumor growth inhibition of HCT-116 colon cancer xenografts in tumor-bearing nude mice (tumor volume, TGI %, RTV, T/C %)
# Format: in vivo, Balb/c Nude mice
# recorded.conditions: Day 23; G10-G16 groups; single IP 400 mg/kg; Mean±SEM
# Method: 4.1 Tumor cells: colon cancer HCT-116 cells, purchased from the Institute of Cell Biology, Chinese Academy of Sciences. […] The formations of tumor at the inoculation site of each group of nude mice were observed. The diameter of tumor nodule (D) was measured three times a week with round hole ruler, and the volume of tumor nodule (V) was calculated according to the following formula: […]. […] The relative proliferation rate T/C (%) was calculated as: […]. […]
property.name: Tumor volume, Day 23 (mm^3)

# molecule, target.desc, number
rows = [
    ("CCCCOC(=O)Nc1nc(=O)n(C2OC(COC(=O)COc3nc(Cl)c(Cl)cc3Cl)C(O)C2(F)F)cc1I (stereo not drawn)", "HCT-116 colon cancer xenografts", 1678.97),
    ("O=C(COc1nc(Cl)c(Cl)cc1Cl)OC[C@H]1O[C@@H](n2cc(Br)c(NC(=O)OCc3ccccc3)nc2=O)C(F)(F)C1O (stereo partly drawn)", "HCT-116 colon cancer xenografts", 2120.63),
    ("O=C(COc1nc(Cl)c(Cl)cc1Cl)OCC1OC(n2cc(-c3cn(Cc4ccccc4)nn3)c(NC(=O)OCc3ccc([N+](=O)[O-])cc3)nc2=O)C(F)(F)C1O (stereo not drawn)", "HCT-116 colon cancer xenografts", 1425.63),
    ("CCCCOC(=O)Nc1nc(=O)n([C@@H]2O[C@H](COC(=O)Cn3cnc([N+](=O)[O-])c3)C(O)C2(F)F)cc1I (stereo partly drawn)", "HCT-116 colon cancer xenografts", 1943.90),
    ("CCCCOC(=O)Nc1nc(=O)n(C2OC(COC(=O)COc3nc(Cl)c(Cl)cc3Cl)C(O)C2(F)F)cc1-c1cn(Cc2ccccc2)nn1 (stereo not drawn)", "HCT-116 colon cancer xenografts", 963.72),
    ("CCCCOC(=O)Nc1nc(=O)n(C2OC(COC(=O)COc3nc(Cl)c(Cl)cc3Cl)C(O)C2(F)F)cc1Br (stereo not drawn)", "HCT-116 colon cancer xenografts", 1923.55),
]

---

# recorded.conditions: Day 22; G3-G9 groups; single IP dose; Mean±SEM

# molecule, Weight of mice, Day 22 / g
records = [
    ("O=C(Nc1ccn([C@@H]2O[C@H](CO)[C@@H](O)C2(F)F)c(=O)n1)OCc1ccc([N+](=O)[O-])cc1 [Compound G5]", 23.20),
    ("CCCCOC(=O)Nc1nc(=O)n([C@@H]2O[C@H](CO)[C@@H](O)C2(F)F)cc1Br [Compound G6]", 20.50),
    ("CC(C)(C)OC(=O)Nc1ccn([C@@H]2O[C@H](CO)[C@@H](O)C2(F)F)c(=O)n1 [Compound G3]", 21.17),
    ("O=C(Nc1ccn([C@@H]2O[C@H](CO)[C@@H](O)C2(F)F)c(=O)n1)OCc1ccccc1 [Compound G4]", 22.62),
    ("O=C(Nc1nc(=O)n([C@@H]2O[C@H](CO)[C@@H](O)C2(F)F)cc1Br)OCc1ccccc1 [Compound G7]", 22.60),
    ("CC(C)(C)OC(=O)Nc1ccn([C@@H]2O[C@H](COC(=O)Cn3cnc([N+](=O)[O-])c3)[C@@H](O)C2(F)F)c(=O)n1 [Compound G9]", 22.13),
]

---

Entries and their measured Weight change rate, Day 6 follow.
# recorded.conditions: Day 6; G3-G9 groups; single IP dose; Mean±SEM

# molecule, Weight change rate, Day 6, %
records = [
    ("O=C(Nc1ccn([C@@H]2O[C@H](CO)[C@@H](O)C2(F)F)c(=O)n1)OCc1ccc([N+](=O)[O-])cc1", "−1.16"),
    ("CCCCOC(=O)Nc1nc(=O)n([C@@H]2O[C@H](CO)[C@@H](O)C2(F)F)cc1Br", 0.52),
    ("O=C(Nc1ccn([C@@H]2O[C@H](CO)[C@@H](O)C2(F)F)c(=O)n1)OCc1ccccc1", "−1.87"),
    ("CC(C)(C)OC(=O)Nc1ccn([C@@H]2O[C@H](CO)[C@@H](O)C2(F)F)c(=O)n1", 4.36),
    ("O=C(Nc1nc(=O)n([C@@H]2O[C@H](CO)[C@@H](O)C2(F)F)cc1Br)OCc1ccccc1", "−4.39"),
    ("CC(C)(C)OC(=O)Nc1ccn([C@@H]2O[C@H](COC(=O)Cn3cnc([N+](=O)[O-])c3)[C@@H](O)C2(F)F)c(=O)n1", 2.53),
]

Numbers sourced from patent US10174067B2.
